TESTED ON: Human Activated Protein C (h aPC) (Homo sapiens, UniProt P04070)
Sequence (P04070 212-450 limits assumed): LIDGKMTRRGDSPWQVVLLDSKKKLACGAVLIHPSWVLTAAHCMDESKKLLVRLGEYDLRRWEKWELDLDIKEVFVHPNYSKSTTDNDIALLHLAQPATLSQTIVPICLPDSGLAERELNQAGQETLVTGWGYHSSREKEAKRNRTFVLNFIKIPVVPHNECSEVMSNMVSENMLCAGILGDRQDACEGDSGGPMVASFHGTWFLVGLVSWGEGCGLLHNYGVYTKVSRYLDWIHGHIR
Sequence (P04070 43-197 partner limits assumed): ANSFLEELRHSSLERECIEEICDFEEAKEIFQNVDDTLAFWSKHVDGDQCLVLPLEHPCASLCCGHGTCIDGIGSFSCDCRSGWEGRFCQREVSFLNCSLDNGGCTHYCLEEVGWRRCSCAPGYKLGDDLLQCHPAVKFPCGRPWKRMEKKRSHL
PROTOCOL: Inhibition of human activated protein C (reference enzyme)
MEASUREMENT CONTEXT: Pefachrome PCa substrate
Protocol: The inhibitory effect against the individual purified enzymes was determined in analogy to a previously disclosed method (Stürzebecher et al., J. Med. Chem., 40, 3091-3099 (1997)). The release of p-nitroaniline (p-NA, the chromogenic product of the proteolytic activity), was determined by change in absorbance at 405 nm. […] Dissociation constants were calculated as described herein.
RECORDED ENDPOINT: Ki

>>> observed("NCc1ccc(Cl)cc1CNC(=O)[C@@H]1CCN1C(=O)[C@@H](CCC(=O)N1CCOCC1)NS(=O)(=O)Cc1ccccc1")
"> 100 µM"
>>> observed("NCc1ccc(Cl)cc1CNC(=O)[C@@H]1C[C@H](N)CN1C(=O)[C@@H](CCC(=O)N1CCOCC1)NS(=O)(=O)Cc1ccccc1")
"> 200 µM"
>>> observed("NCc1ccc(Cl)cc1CNC(=O)CC[C@@H](NS(=O)(=O)Cc1ccccc1)C(=O)N1CCC[C@H]1C(=O)NCc1cc(Cl)ccc1CN")
"> 25 µM"
>>> observed("NCc1ccc(Cl)cc1CNC(=O)[C@@H]1C[C@H](O)CN1C(=O)[C@@H](CCC(=O)N1CCOCC1)NS(=O)(=O)Cc1ccccc1")
"> 25 µM"
>>> observed("NCc1ccc(Cl)cc1CNC(=O)[C@@H]1CCCN1C(=O)[C@@H](CC(=O)N1CCS(=O)(=O)CC1)NS(=O)(=O)Cc1ccccc1")
"> 0.5 µM"
>>> observed("NCc1ccc(Cl)cc1CNC(=O)[C@@H]1CCN1C(=O)[C@@H](CC(=O)N1CCCCC1)NS(=O)(=O)Cc1ccccc1")
"> 100 µM"
